System: A498
Experiment: NCI tumour cell line growth inhibition, 48 h
The source made the active and inactive calls. Rule as the data show it: active = GI50 up to about 1.1 µM and inactive = higher.
Outcome field: choose from t (active), f (inactive)

Exam item: Any idea what this test logged for `Cc1ccc(/N=C/C=C(\Nc2ccc(C)cc2)c2ccc3ccccc3c2)cc1` ?
Marked response: f

Exam item: Any idea what this test logged for `NCCCNc1ccc2c(c1)[n+]([O-])c1ccccc1[n+]2[O-]` ?
Marked response: f

Exam item: Any idea what this test logged for `CC(=O)O[C@H]1C(=O)[C@@]2(C)[C@H]([C@H](OC(=O)c3cccc([N+](=O)[O-])c3)[C@]3(O)C[C@H](OC(=O)[C@H](O)[C@@H](NC(=O)c4ccccc4)c4ccccc4)C(C)=C1C3(C)C)[C@]1(OC(C)=O)CO[C@@H]1C[C@@H]2O` ?
Marked response: t

Exam item: Any idea what this test logged for `Cc1cc(C(F)(F)F)cc(-n2nc(NS(=O)(=O)c3cc(C)c(Cl)cc3S)nc2N)n1` ?
Marked response: f

Exam item: Any idea what this test logged for `CC1=CC[C@](C)(O)[C@@]2(C)CC[C@H]3C(=C(C)C)C(=O)C[C@]3(C)C[C@H]12` ?
Marked response: f

====

# key: entry, value: GI50
Tested on: Malme-3M
Test: NCI tumour cell line growth inhibition, 48 h
Calls of active or inactive are those of the source. No stated cut-off is given here; in the data, active = GI50 up to about 1.1 µM and inactive = higher.

For orientation, consider the following solved cases.
>>> result("NC(Cc1cc(I)c(Oc2ccc(O)c(I)c2)c(I)c1)C(=O)O (stereo not given)")
"36.8 µM (inactive)"
>>> result("C1=C\\CCCCN2C[C@H]3CCCC/C=C\\CCCCN4CC[C@@H]([C@H](CCCCCC/1)C4)[C@H](C3)C2")
"1.85 µM (inactive)"
>>> result("CN/C(=N\\N=C1/C(=O)Nc2ccccc21)SCC(=O)c1ccc(Br)cc1")
"13.5 µM (inactive)"
>>> result("COC(=O)c1cncc2c1CC1C3(C(=O)OC)C=NC(C4C(CO)=CCC43)C21C (stereo not given)")
"> 100 µM (inactive)"

Exam item: Provide measured GI50 value, entry: Cc1cccc(N(C(=O)Nc2ccc(Cl)c(Cl)c2)C2=NCC(C)S2)c1 (stereo not given)
Marked response: 60.1 µM (inactive)

Exam item: Provide measured GI50 value, entry: CON(C)C(=O)C(C)NC(=O)OCc1ccccc1 (stereo not given)
Marked response: > 100 µM (inactive)

Exam item: Provide measured GI50 value, entry: `Oc1nc2cc3nc(O)c(O)nc3cc2nc1O`
Marked response: > 100 µM (inactive)

Exam item: Provide measured GI50 value, entry: `N#CCCN(CCC#N)c1ccc(/C=C2\N=C(c3cc([N+](=O)[O-])ccc3Cl)OC2=O)cc1`
Marked response: > 100 µM (inactive)

====

Tested on: OVCAR-3
Assay: NCI tumour cell line growth inhibition, 48 h
Active and inactive are the calls of the source. Cut-off read from the data, not from the text of the source: active = GI50 up to about 1.1 µM and inactive = higher.
# key: entry, value: GI50

For orientation, consider the following solved cases.
>>> result("CN(C)C(=S)/N=c1\\ssc(=S)n1Cc1ccccc1")
"0.168 µM (active)"
>>> result("COc1cc(/C=C/C(=O)N[C@@H]2C(=O)N3[C@@H]2SC(C)(C)[C@@H]3C(=O)O)cc(OC)c1OC")
"> 100 µM (inactive)"
>>> result("COC(=O)C1CC(C(=O)OC)c2nc3cc(C)c(C)cc3nc21 (stereo unspecified)")
"> 100 µM (inactive)"
>>> result("CCOC(=O)C1=CC(C)(C(=O)OCC)Nc2c(nc(N)[nH]c2=O)N1 (stereo unspecified)")
"> 10 µM (inactive)"
>>> result("CON(C)C(=O)C(C)NC(=O)OCc1ccccc1 (stereo unspecified)")
"> 100 µM (inactive)"

Now take the following compound into account.
Exam item: Provide measured GI50 value, entry: `Fc1ccccc1-c1nn2c(C34CC5CC(CC(C5)C3)C4)nnc2s1`
Marked response: > 100 µM (inactive)

src = ChEMBL document CHEMBL1201862
